%-inhibition of JNK1 by entry:
Biological target: panel of more than 300 wild-type and mutant kinases (313 kinase panel) (Homo sapiens, UniProt P45983)
Sequence (P45983 whole entry, change not shown): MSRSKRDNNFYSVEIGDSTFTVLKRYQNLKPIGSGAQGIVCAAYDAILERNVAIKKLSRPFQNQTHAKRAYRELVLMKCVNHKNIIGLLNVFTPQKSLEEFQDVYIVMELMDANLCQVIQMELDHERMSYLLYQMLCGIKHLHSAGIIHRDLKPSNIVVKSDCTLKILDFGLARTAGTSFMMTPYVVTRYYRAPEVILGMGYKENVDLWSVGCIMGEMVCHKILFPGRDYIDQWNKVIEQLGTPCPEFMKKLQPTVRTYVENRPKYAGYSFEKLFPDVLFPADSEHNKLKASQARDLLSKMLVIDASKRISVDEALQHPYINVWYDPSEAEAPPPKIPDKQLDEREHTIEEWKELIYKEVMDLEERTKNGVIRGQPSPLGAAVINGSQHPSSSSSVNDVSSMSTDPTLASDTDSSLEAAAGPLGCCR
Assay: Kinase profiling in a biochemical assay panel (mobility shift assays and ELISA), %-inhibition at 1 μM; selectivity entropy
Details: kinase JNK1; compound at 1 μM
READOUT_LABEL: %-inhibition of JNK1 (%)

{"columns": ["COMPOUND", "VALUE"],
 "data": [
  ["C[C@@H](Oc1cc(-c2cnn(C3CCNCC3)c2)cnc1N)c1c(Cl)ccc(F)c1Cl", 0.431],
  ["CNC(=O)c1cc(Oc2ccc(NC(=O)Nc3ccc(Cl)c(C(F)(F)F)c3)c(F)c2)ccn1", -1.47],
  ["CS(=O)(=O)CCNCc1ccc(-c2ccc3ncnc(Nc4ccc(OCc5cccc(F)c5)c(Cl)c4)c3c2)o1", -6],
  ["CO[C@H]1C[C@@H]2CC[C@@H](C)[C@@](O)(O2)C(=O)C(=O)N2CCCC[C@H]2C(=O)O[C@H]([C@H](C)C[C@@H]2CC[C@@H](OC(=O)C(C)(CO)CO)[C@H](OC)C2)CC(=O)[C@H](C)/C=C(\\C)[C@@H](O)[C@@H](OC)C(=O)[C@H](C)C[C@H](C)/C=C/C=C/C=C/1C", -3.71],
  ["CC(C)(C)c1nc(-c2cccc(NS(=O)(=O)c3c(F)cccc3F)c2F)c(-c2ccnc(N)n2)s1", -1.12],
  ["CO[C@H]1C[C@@H]2CC[C@@H](C)[C@@](O)(O2)C(=O)C(=O)N2CCCC[C@H]2C(=O)O[C@H]([C@H](C)C[C@@H]2CC[C@@H](OCCO)[C@H](OC)C2)CC(=O)[C@H](C)/C=C(\\C)[C@@H](O)[C@@H](OC)C(=O)[C@H](C)C[C@H](C)/C=C/C=C/C=C/1C", -5],
  ["COc1cc2c(Nc3ccc(Br)cc3F)ncnc2cc1OCC1CCN(C)CC1", -0.604],
  ["CCCS(=O)(=O)Nc1ccc(F)c(C(=O)c2c[nH]c3ncc(-c4ccc(Cl)cc4)cc23)c1F", 1.47],
  ["CC(=O)Nc1cccc(-n2c(=O)n(C3CC3)c(=O)c3c(Nc4ccc(I)cc4F)n(C)c(=O)c(C)c32)c1", -4.68],
  ["O=S(=O)(c1cccc2cnccc12)N1CCCNCC1", -5.43],
  ["Cc1cn(-c2cc(NC(=O)c3ccc(C)c(Nc4nccc(-c5cccnc5)n4)c3)cc(C(F)(F)F)c2)cn1", 36],
  ["COc1cc2nccc(Oc3ccc(NC(=O)C4(C(=O)Nc5ccc(F)cc5)CC4)cc3)c2cc1OC [cabozantinib]", -2.85],
  ["N#CC[C@H](C1CCCC1)n1cc(-c2ncnc3[nH]ccc23)cn1", -3]
]}

---

Biological target: panel of more than 300 wild-type and mutant kinases (313 kinase panel) (Homo sapiens, UniProt P35968)
Assay: Kinase profiling in a biochemical assay panel (mobility shift assays and ELISA), %-inhibition at 1 μM; selectivity entropy
Conditions: kinase KDR; compound at 1 μM
Assign class by %-inhibition of KDR: not lower than 10% means true; lower than 10% means false.

{"columns": ["COMPOUND", "CLASS_NAME"],
 "data": [
  ["CC(=O)Nc1cccc(-n2c(=O)n(C3CC3)c(=O)c3c(Nc4ccc(I)cc4F)n(C)c(=O)c(C)c32)c1 [trametinib]", "false"],
  ["O=S(=O)(c1cccc2cnccc12)N1CCCNCC1 [fasudil]", "false"],
  ["CNC(=O)c1cc(Oc2ccc(NC(=O)Nc3ccc(Cl)c(C(F)(F)F)c3)c(F)c2)ccn1 [regorafenib]", "true"],
  ["Cc1cn(-c2cc(NC(=O)c3ccc(C)c(Nc4nccc(-c5cccnc5)n4)c3)cc(C(F)(F)F)c2)cn1 [nilotinib]", "true"],
  ["N#CC[C@H](C1CCCC1)n1cc(-c2ncnc3[nH]ccc23)cn1 [ruxolitinib]", "false"],
  ["CO[C@H]1C[C@@H]2CC[C@@H](C)[C@@](O)(O2)C(=O)C(=O)N2CCCC[C@H]2C(=O)O[C@H]([C@H](C)C[C@@H]2CC[C@@H](OC(=O)C(C)(CO)CO)[C@H](OC)C2)CC(=O)[C@H](C)/C=C(\\C)[C@@H](O)[C@@H](OC)C(=O)[C@H](C)C[C@H](C)/C=C/C=C/C=C/1C [temsirolimus]", "false"],
  ["CCCS(=O)(=O)Nc1ccc(F)c(C(=O)c2c[nH]c3ncc(-c4ccc(Cl)cc4)cc23)c1F [vemurafenib]", "true"],
  ["CO[C@H]1C[C@@H]2CC[C@@H](C)[C@@](O)(O2)C(=O)C(=O)N2CCCC[C@H]2C(=O)O[C@H]([C@H](C)C[C@@H]2CC[C@@H](OCCO)[C@H](OC)C2)CC(=O)[C@H](C)/C=C(\\C)[C@@H](O)[C@@H](OC)C(=O)[C@H](C)C[C@H](C)/C=C/C=C/C=C/1C [everolimus]", "false"]
]}

---

Target: panel of more than 300 wild-type and mutant kinases (313 kinase panel) (Homo sapiens, UniProt Q9UQB9)
Sequence (Q9UQB9 1-309): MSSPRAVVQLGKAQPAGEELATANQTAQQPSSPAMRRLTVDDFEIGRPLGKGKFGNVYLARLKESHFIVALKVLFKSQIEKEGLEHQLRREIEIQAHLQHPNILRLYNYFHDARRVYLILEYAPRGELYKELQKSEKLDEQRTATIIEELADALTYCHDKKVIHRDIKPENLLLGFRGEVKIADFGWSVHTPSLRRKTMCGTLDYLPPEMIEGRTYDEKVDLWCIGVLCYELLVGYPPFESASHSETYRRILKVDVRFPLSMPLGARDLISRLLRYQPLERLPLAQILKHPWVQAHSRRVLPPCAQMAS
Experiment: Kinase profiling in a biochemical assay panel (mobility shift assays and ELISA), %-inhibition at 1 μM; selectivity entropy
Conditions: kinase AurC; 1 μM compound
Assign class by %-inhibition, AurC: not lower than 10% means Fulfilled; lower than 10% means Not fulfilled.

{"columns": ["MOLECULE", "CLASS_NAME"],
 "data": [
  ["C[C@@H](Oc1cc(-c2cnn(C3CCNCC3)c2)cnc1N)c1c(Cl)ccc(F)c1Cl [crizotinib]", "Fulfilled"],
  ["CNC(=O)c1cc(Oc2ccc(NC(=O)Nc3ccc(Cl)c(C(F)(F)F)c3)c(F)c2)ccn1 [regorafenib]", "Fulfilled"],
  ["COc1cc2nccc(Oc3ccc(NC(=O)C4(C(=O)Nc5ccc(F)cc5)CC4)cc3)c2cc1OC [cabozantinib]", "Fulfilled"],
  ["CO[C@H]1C[C@@H]2CC[C@@H](C)[C@@](O)(O2)C(=O)C(=O)N2CCCC[C@H]2C(=O)O[C@H]([C@H](C)C[C@@H]2CC[C@@H](OCCO)[C@H](OC)C2)CC(=O)[C@H](C)/C=C(\\C)[C@@H](O)[C@@H](OC)C(=O)[C@H](C)C[C@H](C)/C=C/C=C/C=C/1C [everolimus]", "Not fulfilled"],
  ["CC(=O)Nc1cccc(-n2c(=O)n(C3CC3)c(=O)c3c(Nc4ccc(I)cc4F)n(C)c(=O)c(C)c32)c1 [trametinib]", "Not fulfilled"],
  ["Cc1cn(-c2cc(NC(=O)c3ccc(C)c(Nc4nccc(-c5cccnc5)n4)c3)cc(C(F)(F)F)c2)cn1 [nilotinib]", "Not fulfilled"],
  ["CCCS(=O)(=O)Nc1ccc(F)c(C(=O)c2c[nH]c3ncc(-c4ccc(Cl)cc4)cc23)c1F [vemurafenib]", "Fulfilled"]
]}

---

Molecular target: panel of more than 300 wild-type and mutant kinases (313 kinase panel) (Homo sapiens)
Assay: Kinase profiling in a biochemical assay panel (mobility shift assays and ELISA), %-inhibition at 1 μM; selectivity entropy
Conditions: kinase LTK; compound at 1 μM
%-inhibition of LTK by entry:
READOUT_LABEL: %-inhibition of LTK (%)

{"columns": ["CHEMICAL_STRING", "ASSAY_TARGET", "VALUE"],
 "data": [
  ["CCCS(=O)(=O)Nc1ccc(F)c(C(=O)c2c[nH]c3ncc(-c4ccc(Cl)cc4)cc23)c1F", "panel of more than 300 wild-type and mutant kinases (313 kinase panel) (Homo sapiens)", 2.6],
  ["CC(C)(C)c1nc(-c2cccc(NS(=O)(=O)c3c(F)cccc3F)c2F)c(-c2ccnc(N)n2)s1", "panel of more than 300 wild-type and mutant kinases (313 kinase panel) (Homo sapiens)", 2.67],
  ["CO[C@H]1C[C@@H]2CC[C@@H](C)[C@@](O)(O2)C(=O)C(=O)N2CCCC[C@H]2C(=O)O[C@H]([C@H](C)C[C@@H]2CC[C@@H](OC(=O)C(C)(CO)CO)[C@H](OC)C2)CC(=O)[C@H](C)/C=C(\\C)[C@@H](O)[C@@H](OC)C(=O)[C@H](C)C[C@H](C)/C=C/C=C/C=C/1C", "panel of more than 300 wild-type and mutant kinases (313 kinase panel) (Homo sapiens)", -10],
  ["CNC(=O)c1cc(Oc2ccc(NC(=O)Nc3ccc(Cl)c(C(F)(F)F)c3)c(F)c2)ccn1", "panel of more than 300 wild-type and mutant kinases (313 kinase panel) (Homo sapiens)", -1.56],
  ["Cc1ccc(C(=O)Nc2ccc(CN3CCN(C)CC3)c(C(F)(F)F)c2)cc1C#Cc1cnc2cccnn12", "panel of more than 300 wild-type and mutant kinases (313 kinase panel) (Homo sapiens)", 85],
  ["Cc1ccc(Nc2nccc(N(C)c3ccc4c(C)n(C)nc4c3)n2)cc1S(N)(=O)=O", "panel of more than 300 wild-type and mutant kinases (313 kinase panel) (Homo sapiens)", 27]
]}

All figures here come from paper PMC3961306.
